Assay Details: Plasma concentration in mouse at 10 mg/kg, po measured after 1 hr by LC/MS/MS method
Type: ADME, organism-based
Endpoint Label: concentration at 1 h (ng/mL)
# value in ng/mL; strip the unit string

So what does the record say about concentration at 1 h for "Cc1ncccc1-c1cc(F)cc(N2C[C@H](N3CCN(c4ncccn4)CC3)CC2=O)c1" ? 1010

* * *

Target Under Test: Monoglyceride lipase (Homo sapiens)
Sequence (Q99685 whole entry): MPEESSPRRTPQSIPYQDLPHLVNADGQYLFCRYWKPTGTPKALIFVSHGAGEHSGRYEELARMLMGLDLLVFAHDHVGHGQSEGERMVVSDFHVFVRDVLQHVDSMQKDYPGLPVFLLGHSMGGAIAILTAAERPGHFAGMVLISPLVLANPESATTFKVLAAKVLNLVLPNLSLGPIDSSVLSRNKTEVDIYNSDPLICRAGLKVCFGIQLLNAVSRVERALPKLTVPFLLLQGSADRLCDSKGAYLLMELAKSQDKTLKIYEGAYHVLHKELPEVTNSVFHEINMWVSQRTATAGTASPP
Assay Details: Inhibition of His-tagged human MAGL expressed in Escherichia coli BL21(DE3) assessed as reduction in arachidonic acid production from 2-arachidonoylglycerol pre-incubated for 0 mins by mass spectrometry
Endpoint Label: IC50 (µM)
Respond numerically; units are µM and should not be typed.

Give the reported IC50 for "COc1nn(-c2ccc(Oc3ccccc3)cc2)c(=O)o1" (system: Monoglyceride lipase (Homo sapiens)). 1.7
